Where do these numbers come from? They come from patent US8710233B2.

Tested Target: VR1/TRPV1 receptor (Homo sapiens)
Sequence (Q8NER1 whole entry): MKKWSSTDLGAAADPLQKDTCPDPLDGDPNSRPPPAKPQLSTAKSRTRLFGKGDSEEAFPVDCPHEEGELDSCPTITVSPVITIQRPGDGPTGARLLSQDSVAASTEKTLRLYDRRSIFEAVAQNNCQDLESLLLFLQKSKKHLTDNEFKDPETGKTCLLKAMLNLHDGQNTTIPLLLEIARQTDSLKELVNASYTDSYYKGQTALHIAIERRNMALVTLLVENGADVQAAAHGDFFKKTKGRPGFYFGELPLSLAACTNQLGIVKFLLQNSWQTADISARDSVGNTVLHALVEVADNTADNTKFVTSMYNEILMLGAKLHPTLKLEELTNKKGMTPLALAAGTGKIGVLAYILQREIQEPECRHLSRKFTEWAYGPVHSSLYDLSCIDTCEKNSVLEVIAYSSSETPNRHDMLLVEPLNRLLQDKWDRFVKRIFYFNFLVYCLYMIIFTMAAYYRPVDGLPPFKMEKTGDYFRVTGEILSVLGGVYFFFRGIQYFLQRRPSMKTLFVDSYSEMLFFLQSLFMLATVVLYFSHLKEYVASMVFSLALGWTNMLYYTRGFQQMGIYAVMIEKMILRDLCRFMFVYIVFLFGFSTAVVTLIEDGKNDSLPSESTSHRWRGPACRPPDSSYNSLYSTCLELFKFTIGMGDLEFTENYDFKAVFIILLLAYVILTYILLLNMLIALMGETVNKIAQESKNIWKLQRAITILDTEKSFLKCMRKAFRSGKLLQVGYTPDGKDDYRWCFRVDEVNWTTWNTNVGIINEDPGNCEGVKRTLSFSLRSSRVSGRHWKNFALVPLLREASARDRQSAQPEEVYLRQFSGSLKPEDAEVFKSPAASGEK
Assay Info: IC50 (human) after pH stimulus
Format: cell-based
Recorded Conditions: table 4
Observation Type: pIC50
Worth noting: pIC50 values are minus log10 of concentrations stated in mol/L.

Solved cases (3 shown):
CCCCNc1nc(C(F)(F)F)ccc1CNC(=O)C(C)c1ccc(NS(C)(=O)=O)c(F)c1 (stereo not shown) = 6.53
CC(C(=O)NCc1ccc(C(F)(F)F)nc1-c1ccc(C(C)(C)C)cc1)c1ccc(NS(C)(=O)=O)c(F)c1 (stereo not shown) = 7.63
CC1CCN(c2nc(C(F)(F)Cl)ccc2CNC(=O)C(C)c2ccc(NS(C)(=O)=O)c(F)c2)CC1 (stereo not shown) = 8.23

Requested field: pIC50. Item: COc1ccc(-c2cc(C(F)(F)F)ccc2CNC(=O)C(C)c2ccc(NS(C)(=O)=O)c(F)c2)cc1OC (stereo not shown)
6.15
